Target: Tyrosyl-DNA phosphodiesterase 2 (Homo sapiens)
Sequence (O95551 whole entry): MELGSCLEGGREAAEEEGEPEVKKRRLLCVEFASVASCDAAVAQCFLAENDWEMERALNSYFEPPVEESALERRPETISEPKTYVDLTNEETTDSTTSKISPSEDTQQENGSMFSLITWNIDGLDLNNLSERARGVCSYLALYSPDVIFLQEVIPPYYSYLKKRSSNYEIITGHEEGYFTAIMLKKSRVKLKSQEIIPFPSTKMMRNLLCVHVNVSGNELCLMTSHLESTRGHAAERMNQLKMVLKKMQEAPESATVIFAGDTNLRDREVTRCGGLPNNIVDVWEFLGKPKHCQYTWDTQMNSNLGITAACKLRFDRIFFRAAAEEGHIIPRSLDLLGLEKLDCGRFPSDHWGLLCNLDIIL
Assay: Inhibition of recombinant human TDP2 using 18-mer single stranded oligonucleotide DNA as substrate incubated for 15 mins by PAGE assay
Measured IC50, listed per entry for reference.

Study these solved cases before continuing.
{"columns": ["smiles repr", "endpoint result"],
 "data": [
  ["O=c1[nH]c(=O)c2ccc(-c3ccccc3)cc2[nH]1", "> 111 µM"],
  ["O=C1NC(=O)c2ccc(-c3ccco3)c3cccc1c23", "> 111 µM"],
  ["COc1cccc(OC)c1-c1ccc2c(c1)CC(=O)NC2=O", "> 37 µM"]
]}

Lab note: measured IC50 of `CC(=O)Nc1c2c(nn1-c1ccccc1)CC(=O)NC2=O` was > 111 µM

Lab note: measured IC50 of `O=C1Cc2cc(-c3cccc(-c4ccccc4)c3)ccc2C(=O)N1` was > 111 µM

Lab note: measured IC50 of `O=C1Cc2c(cccc2-c2cccc([N+](=O)[O-])c2)C(=O)N1` was > 37 µM

Lab note: measured IC50 of `O=C1Cc2cc(Cc3ccccc3)ccc2C(=O)N1` was > 111 µM

Lab note: measured IC50 of `Nc1c2c(nn1-c1ccccn1)CC(=O)NC2=O` was > 111 µM

Lab note: measured IC50 of `O=C1Cc2ccc(-c3ccco3)cc2C(=O)N1O` was > 111 µM

Lab note: measured IC50 of `O=C1Cc2cc(-c3ccccc3C(=O)O)ccc2C(=O)N1` was > 111 µM

Lab note: measured IC50 of `O=C1Cc2cc(C(=O)O)ccc2C(=O)N1` was > 111 µM

Lab note: measured IC50 of `Nc1c2c(nn1-c1ccc(F)cc1)CC(=O)NC2=O` was > 111 µM

Lab note: measured IC50 of `O=C1Cc2cc(-c3ccco3)ccc2C(=O)N1O` was > 111 µM

Lab note: measured IC50 of `Nc1c2c(nn1-c1ccccc1)CC(=O)NC2=O` was > 111 µM

Lab note: measured IC50 of `O=C1Cc2c(cccc2-c2ccco2)C(=O)N1` was > 111 µM
